target: PgiCAβ (Porphyromonas gingivalis)
Sequence (B2RL07 19-242): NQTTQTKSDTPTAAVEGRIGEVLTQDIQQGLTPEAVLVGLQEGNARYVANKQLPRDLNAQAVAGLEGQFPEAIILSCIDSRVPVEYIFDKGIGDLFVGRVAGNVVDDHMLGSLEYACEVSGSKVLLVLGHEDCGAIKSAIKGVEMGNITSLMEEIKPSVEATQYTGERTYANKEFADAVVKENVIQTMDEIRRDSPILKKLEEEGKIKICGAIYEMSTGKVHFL
pKi: −log10 of the molar value.
Decide by pKi: equal to or exceeding 6 means criterion met, less means criterion not met.

Worked cases, answers included:
{"compound": "COc1cc(OC)c2c(c1Cl)O[C@]1(C2=O)C(=O)C(C(CC(=O)NCc2ccc(S(N)(=O)=O)cc2)c2ccc(SC)cc2)C(=O)C[C@H]1C (stereo partly drawn) [Compound 1h]", "assigned_class": "criterion not met"}
{"compound": "COc1cc(OC)c2c(c1Cl)O[C@]1(C2=O)C(=O)C(C(CC(=O)NCCc2ccc(S(N)(=O)=O)cc2)c2ccc(SC)cc2)C(=O)C[C@H]1C (stereo partly drawn) [Compound 1i]", "assigned_class": "criterion met"}
{"compound": "COc1cc(OC)c2c(c1Cl)O[C@@]1(C(=O)C(=CNCCc3ccc(S(N)(=O)=O)cc3)C(=O)C[C@H]1C)C2=O [Compound 1f]", "assigned_class": "criterion not met"}
{"compound": "COc1cc(OC)c2c(c1Cl)O[C@]1(C2=O)C(=O)C(C(CC(=O)NCC(=O)Nc2ccc(S(N)(=O)=O)cc2)c2ccc(SC)cc2)C(=O)C[C@H]1C (stereo partly drawn) [Compound 1j]", "assigned_class": "criterion not met"}

// query Entry COc1cc(C(CC(=O)NCCS(N)(=O)=O)C2C(=O)C[C@@H](C)[C@]3(Oc4c(Cl)c(OC)cc(OC)c4C3=O)C2=O)ccc1O (stereo partly drawn) [Compound 1g] : is its pKi no less than 6?
// result criterion not met

----------
biological target: hCA II (Homo sapiens)
pKi: −log10 of the molar value.
Lab note: anything with pKi at or over 8 counts as 1 (yes); the rest go in 0 (no).

Example results:
{"compound": "COc1cc(OC)c2c(c1Cl)O[C@]1(C2=O)C(=O)C(C(CC(=O)NCC(=O)Nc2ccc(S(N)(=O)=O)cc2)c2ccc(SC)cc2)C(=O)C[C@H]1C (stereo partly drawn)", "study_system": "hCA II (Homo sapiens)", "assigned_class": "1 (yes)"}
{"compound": "CC(=O)c1c(O)c(C)c(O)c2c1OC1=CC(=O)C(=C(C)Nc3cc(S(N)(=O)=O)ccc3O)C(=O)[C@@]12C", "study_system": "hCA II (Homo sapiens)", "assigned_class": "0 (no)"}

Consider the record given below.
// query Check if pKi >= 8 (inclusive). Item: COc1cc(OC)c2c(c1Cl)OC1(C(=O)C=C(NCc3ccc(S(N)(=O)=O)cc3)CC1C)C2=O (stereo not drawn)
// result 0 (no)

----------
Reported pKi is given for each of the following compounds.
Molecular target: PgiCAγ (Porphyromonas gingivalis)
Sequence (Q7MV79 1-192): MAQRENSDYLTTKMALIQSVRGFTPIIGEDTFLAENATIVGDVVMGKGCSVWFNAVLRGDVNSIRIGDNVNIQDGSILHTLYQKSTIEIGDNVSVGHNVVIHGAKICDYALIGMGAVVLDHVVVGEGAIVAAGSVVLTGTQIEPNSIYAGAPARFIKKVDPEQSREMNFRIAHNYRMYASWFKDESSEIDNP
Assay: stopped-flow CO2 hydrase assay, PgiCAγ
Type: biochemical
Settings: mean from 3 different assays, errors ±5–10%
Keep it numeric: pKi is minus log10 of the concentration in mol/L.

// query Reported pKi for COc1cc(C(CC(=O)NCCS(N)(=O)=O)C2C(=O)C[C@@H](C)[C@]3(Oc4c(Cl)c(OC)cc(OC)c4C3=O)C2=O)ccc1O (stereo partly drawn) [Compound 1g] : what is it?
// result 5.65

----------
target: CpsCAγ (Colwellia psychrerythraea, UniProt Q48AV3); assay: biochemical; format: biochemical
Sequence (Q48AV3 entry or part of it): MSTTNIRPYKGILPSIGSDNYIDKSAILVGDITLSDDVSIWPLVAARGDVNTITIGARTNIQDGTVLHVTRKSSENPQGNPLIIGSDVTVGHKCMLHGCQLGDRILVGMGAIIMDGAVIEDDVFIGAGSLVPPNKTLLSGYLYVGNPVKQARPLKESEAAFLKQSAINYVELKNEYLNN
pKi: −log10 of the molar value.
The threshold is inclusive: pKi of exactly 6 counts as t; values below receive f.

{"compound": "COc1cc(OC)c2c(c1Cl)OC1(C(=O)C=C(Nc3ccc(S(N)(=O)=O)cc3O)CC1C)C2=O (centres unmarked) [Compound 1d]", "assigned_class": "t"}
{"compound": "COc1cc(OC)c2c(c1Cl)OC1(C(=O)C=C(NCCS(N)(=O)=O)CC1C)C2=O (centres unmarked) [Compound 1a]", "assigned_class": "f"}

# next compound below
// query Could you tell me if the measured pKi of COc1cc(OC)c2c(c1Cl)O[C@@]1(C(=O)/C(=C\NCc3ccc(S(N)(=O)=O)cc3)C(=O)C[C@H]1C)C2=O [Compound 1e] reaches 6 or more?
// result t

----------
biological target: BpsCAγ (Burkholderia pseudomallei, UniProt Q63SQ4); details: read-out: KI BpsCAγ
Sequence (Q63SQ4 1-174): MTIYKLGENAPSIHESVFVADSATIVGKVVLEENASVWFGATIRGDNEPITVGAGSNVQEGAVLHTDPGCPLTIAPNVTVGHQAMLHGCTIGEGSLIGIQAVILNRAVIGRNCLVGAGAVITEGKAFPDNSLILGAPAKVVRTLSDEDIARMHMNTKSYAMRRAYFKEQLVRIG
attribute_measured: Ki

{"compound": "COc1cc(OC)c2c(c1Cl)OC1(C(=O)C=C(Nc3ccc(S(N)(=O)=O)cc3)CC1C)C2=O (stereo not drawn)", "Ki": "945 nM"}
{"compound": "COc1cc(OC)c2c(c1Cl)O[C@]1(C2=O)C(=O)C(C(CC(=O)NCc2ccc(S(N)(=O)=O)cc2)c2ccc(SC)cc2)C(=O)C[C@H]1C (stereo partly drawn)", "Ki": "1400 nM"}
{"compound": "COc1cc(OC)c2c(c1Cl)OC1(C(=O)C=C(NCc3ccc(S(N)(=O)=O)cc3)CC1C)C2=O (stereo not drawn)", "Ki": "833 nM"}

// query Param readout= Ki; system= BpsCAγ (Burkholderia pseudomallei, UniProt Q63SQ4); entry= CC(=O)c1c(O)c(C)c(O)c2c1OC1=CC(=O)C(=C(C)Nc3cc(S(N)(=O)=O)ccc3O)C(=O)[C@@]12C ; returns value.
// result 1000 nM

// query Would you mind doing COc1cc(OC)c2c(c1Cl)O[C@@]1(C(=O)/C(=C\NCc3ccc(S(N)(=O)=O)cc3)C(=O)C[C@H]1C)C2=O as well?
// result 1060 nM

// query Entry COc1cc(OC)c2c(c1Cl)OC1(C(=O)C=C(Nc3ccc(S(N)(=O)=O)cc3O)CC1C)C2=O (stereo not drawn) please
// result 878 nM

----------
molecular target: PgiCAβ (Porphyromonas gingivalis)
We begin with a simple list: items and their reported Ki.
Dear colleague, please return just the value in nM, with no unit written.

Some entries whose results are on file:
{"molecule": "COc1cc(OC)c2c(c1Cl)O[C@@]1(C(=O)/C(=C\\NCc3ccc(S(N)(=O)=O)cc3)C(=O)C[C@H]1C)C2=O [Compound 1e]", "study_system": "PgiCAβ (Porphyromonas gingivalis)", "endpoint_unit": "nM", "Ki": 940}
{"molecule": "CC(=O)c1c(O)c(C)c(O)c2c1OC1=CC(=O)C(=C(C)Nc3cc(S(N)(=O)=O)ccc3O)C(=O)[C@@]12C [Compound 4b]", "study_system": "PgiCAβ (Porphyromonas gingivalis)", "endpoint_unit": "nM", "Ki": 766}
{"molecule": "COc1cc(OC)c2c(c1Cl)OC1(C(=O)C=C(NCc3ccc(S(N)(=O)=O)cc3)CC1C)C2=O (stereo not shown) [Compound 1c]", "study_system": "PgiCAβ (Porphyromonas gingivalis)", "endpoint_unit": "nM", "Ki": 896}
{"molecule": "COc1cc(OC)c2c(c1Cl)OC1(C(=O)C=C(Nc3ccc(S(N)(=O)=O)cc3O)CC1C)C2=O (stereo not shown) [Compound 1d]", "study_system": "PgiCAβ (Porphyromonas gingivalis)", "endpoint_unit": "nM", "Ki": 1280}
{"molecule": "COc1cc(OC)c2c(c1Cl)OC1(C(=O)C=C(NCCS(N)(=O)=O)CC1C)C2=O (stereo not shown) [Compound 1a]", "study_system": "PgiCAβ (Porphyromonas gingivalis)", "endpoint_unit": "nM", "Ki": 779}
{"molecule": "CC(=O)c1c(O)c(C)c(O)c2c1OC1=CC(=O)C(=C(C)Nc3ccc(S(N)(=O)=O)cc3O)C(=O)[C@@]12C [Compound 4a]", "study_system": "PgiCAβ (Porphyromonas gingivalis)", "endpoint_unit": "nM", "Ki": 888}

In the following, a different molecule is considered.
// query Need Ki of COc1cc(OC)c2c(c1Cl)OC1(C(=O)C=C(Nc3ccc(S(N)(=O)=O)cc3)CC1C)C2=O (stereo not shown) [Compound 1b] , thanks.
// result 819

----------
Observed pKi, system hCA II (Homo sapiens).
// scale note: pKi = -log10(conc_M); give the bare number

Previously resolved entries follow.
{"compound": "COc1cc(OC)c2c(c1Cl)O[C@]1(C2=O)C(=O)C(C(CC(=O)NCc2ccc(S(N)(=O)=O)cc2)c2ccc(SC)cc2)C(=O)C[C@H]1C (stereo partly drawn)", "pKi": 8.12}
{"compound": "CC(=O)c1c(O)c(C)c(O)c2c1OC1=CC(=O)C(=C(C)Nc3ccc(S(N)(=O)=O)cc3O)C(=O)[C@@]12C", "pKi": 8.08}

// query Fill in: pKi of COc1cc(OC)c2c(c1Cl)O[C@]1(C2=O)C(=O)C(C(CC(=O)NCCc2ccc(S(N)(=O)=O)cc2)c2ccc(SC)cc2)C(=O)C[C@H]1C (stereo partly drawn) is ___
// result 8.09

Where do these numbers come from? They come from paper PMC9917406.
